# test-system: human melanin concentrating hormone type 2 receptor (MCH-2R) (human, UniProt Q969V1 1-340)
# Sequence (Q969V1 whole entry, form in doubt): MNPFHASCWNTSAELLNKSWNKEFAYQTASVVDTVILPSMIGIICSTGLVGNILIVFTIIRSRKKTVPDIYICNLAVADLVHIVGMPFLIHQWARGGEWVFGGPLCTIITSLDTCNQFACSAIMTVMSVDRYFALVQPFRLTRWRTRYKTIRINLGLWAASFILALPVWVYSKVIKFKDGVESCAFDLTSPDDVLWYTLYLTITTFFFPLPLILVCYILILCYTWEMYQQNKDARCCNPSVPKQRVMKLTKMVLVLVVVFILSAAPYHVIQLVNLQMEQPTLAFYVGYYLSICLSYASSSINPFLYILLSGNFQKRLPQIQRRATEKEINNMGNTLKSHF
# assay-info: cell-based or functional assay
Bridges are numbered along the chain shown (N, C = ends). Where no end group is shown, it is not given here.
measurement-type: EC50 (aequorin functional assay) (nM)

Reference set (4 entries):
binder	EC50 (aequorin functional assay) [nM]
DFDMLRCMLGRVYAPCWQV (disulfide 7-16, also called Ala^14) [SEQ. ID. NO. 52]	186
DFDMLRCMLGRVYRPCAQV (disulfide 7-16, also called Ala^17) [SEQ. ID. NO. 54]	54.2
DFDMLRCMLGRAYRPCWQV (disulfide 7-16, also called Ala^12) [SEQ. ID. NO. 50]	83.6
AFDMLRCMLGRVYRPCWQV (disulfide 7-16, positions 1-19 as in hMCH; also called Ala^1) [SEQ. ID. NO. 41]	114

1. DADMLRCMLGRVYRPCWQV (disulfide 7-16, also called Ala^2) [SEQ. ID. NO. 42]
2. DFDMLRCMLGRVFRPCYQV (disulfide 7-16, label prints Tyr^17 while the radioligand is Phe^13, Tyr^19; also called Phe^13, Tyr^17) [SEQ. ID. NO. 57]
# compare EC50 (aequorin functional assay) for 1 vs 2 ; return the one with the smaller value In your reply, give the label of the chosen option.
2
